These measurements were taken from ChEMBL document CHEMBL4622929.

# target.or.test.system: Adenosine receptor A2a (Rattus norvegicus)
# test.details: Displacement of [3H]NECA from Sprague-Dawley rat striatal membrane A2A adenosine receptor at 100 uM by scintillation counting analysis relative to control
# Assay type: cell membranes
# cond: Striatum
Is inhibition at least 60%? Then true (1). If not, false (0).

> print(dat)
                           test.smiles  class.assignment
 1  O=c1[nH]c(-c2ccc(Br)cc2)nc2ccccc12          true (1)
 2      O=c1oc(-c2ccc(F)cc2)nc2ccccc12          true (1)
 3   Cc1ccc(-c2nc3ccccc3c(=O)[nH]2)cc1         false (0)
 4         O=c1oc(-c2ccccc2)nc2ccccc12         false (0)
 5           O=c1oc2ccccc2cc1-c1ccccc1          true (1)
 6       Oc1nc(-c2ccc(F)cc2)nc2ccccc12          true (1)
 7  O=c1[nH]c(-c2ccc(Cl)cc2)nc2ccccc12          true (1)
 8     O=c1oc(-c2ccc(Cl)cc2)nc2ccccc12          true (1)
 9      Cc1ccc(-c2nc3ccccc3c(=O)o2)cc1          true (1)
10           O=c1oc2ccccc2nc1-c1ccccc1          true (1)
11     COc1ccc(-c2nc3ccccc3c(=O)o2)cc1         false (0)
12     O=c1oc(-c2ccc(Br)cc2)nc2ccccc12          true (1)
13           Oc1nc(-c2cccs2)nc2ccccc12         false (0)

====

# target.or.test.system: Adenosine receptor A2a (Rattus norvegicus) (UniProt P30543)
# Sequence (P30543 whole entry): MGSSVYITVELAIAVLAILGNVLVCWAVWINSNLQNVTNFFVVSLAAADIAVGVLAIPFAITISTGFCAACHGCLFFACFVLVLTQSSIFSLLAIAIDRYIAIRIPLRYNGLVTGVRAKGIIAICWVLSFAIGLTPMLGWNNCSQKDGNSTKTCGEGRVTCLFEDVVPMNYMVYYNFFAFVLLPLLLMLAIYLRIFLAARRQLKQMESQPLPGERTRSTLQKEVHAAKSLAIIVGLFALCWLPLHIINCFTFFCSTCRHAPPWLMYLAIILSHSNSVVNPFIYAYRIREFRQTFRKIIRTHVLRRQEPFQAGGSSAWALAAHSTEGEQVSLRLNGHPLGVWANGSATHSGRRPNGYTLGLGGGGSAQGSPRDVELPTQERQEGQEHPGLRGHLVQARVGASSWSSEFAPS
# test.details: Displacement of [3H]NECA from Sprague-Dawley rat striatal membrane A2A adenosine receptor at 100 uM by scintillation counting analysis relative to control
# Format: cell membranes
# cond: Striatum
Mark fulfilled for reported inhibition of 70% or greater; mark not fulfilled for anything smaller.

> print(dat)
                          test.smiles  class.assignment
1     O=c1oc(/C=C/c2ccccc2)nc2ccccc12         fulfilled
2          O=c1oc(-c2ccco2)nc2ccccc12     not fulfilled
3      COc1ccc(-c2nc(O)c3ccccc3n2)cc1         fulfilled
4    CCOc1ccc(-c2nc3ccccc3c(=O)o2)cc1         fulfilled
5  O=c1[nH]c(/C=C/c2ccccc2)nc2ccccc12     not fulfilled
6          Oc1nc(-c2ccccc2)cc2ccccc12         fulfilled

====

# target.or.test.system: Adenosine receptor A1 (Rattus norvegicus) (UniProt P25099)
# Sequence (P25099 whole entry): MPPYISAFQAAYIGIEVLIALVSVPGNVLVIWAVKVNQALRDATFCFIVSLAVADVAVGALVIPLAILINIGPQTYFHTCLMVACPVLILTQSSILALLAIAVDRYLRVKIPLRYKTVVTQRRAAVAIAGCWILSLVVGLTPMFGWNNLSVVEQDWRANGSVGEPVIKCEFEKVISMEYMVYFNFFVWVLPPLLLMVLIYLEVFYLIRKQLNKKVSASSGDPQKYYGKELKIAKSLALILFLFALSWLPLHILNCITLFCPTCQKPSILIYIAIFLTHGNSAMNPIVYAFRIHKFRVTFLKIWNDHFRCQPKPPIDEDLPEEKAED
# test.details: Displacement of [3H]DPCPX from Sprague-Dawley rat whole brain membrane A1AR at 100 uM by scintillation counting analysis relative to control
# Assay type: cell membranes
# Lookup of reported inhibition keyed by entry
observation.type: inhibition (%)

> print(dat)
                           test.smiles  observation.type  result
 1          Oc1nc(-c2ccccc2)cc2ccccc12        inhibition     100
 2    COc1ccc(-c2nc(O)c3ccccc3n2)cc1OC        inhibition      67
 3      COc1ccc(-c2nc(O)c3ccccc3n2)cc1        inhibition      44
 4     O=c1oc(-c2ccc(Cl)cc2)nc2ccccc12        inhibition      86
 5  O=c1[nH]c(-c2ccc(Cl)cc2)nc2ccccc12        inhibition      54
 6     O=c1oc(-c2ccc(Br)cc2)nc2ccccc12        inhibition      95
 7     COc1ccc(-c2nc3ccccc3c(=O)o2)cc1        inhibition      54
 8      Cc1ccc(-c2nc3ccccc3c(=O)o2)cc1        inhibition      84
 9  O=c1[nH]c(/C=C/c2ccccc2)nc2ccccc12        inhibition     100
10  O=c1[nH]c(-c2ccc(Br)cc2)nc2ccccc12        inhibition      98
11    CCOc1ccc(-c2nc3ccccc3c(=O)o2)cc1        inhibition      99
12           O=c1oc2ccccc2cc1-c1ccccc1        inhibition      51
13       Oc1nc(-c2ccc(F)cc2)nc2ccccc12        inhibition      50
